System: Rattus norvegicus
Assay: Distribution of radioactivity of radiolabeled compound in liver of female rats 30 minutes after intravenous administration
Type: ADME, organism-based
Details: in vivo, 0.5 h
The following ranges of Dose define the classes used here: class 1 (below 1%), class 2 (1% to below 4%), class 3 (4% or more)

> print(dat)
                                   compound  experimental.target    class
1  Nc1c(I)cc(I)c(CCCCCCCCCCCCCCCCC(=O)O)c1I    Rattus norvegicus  class 3
2       Nc1c(I)cc(I)c(CCCCCCCCCCCC(=O)O)c1I    Rattus norvegicus  class 2
3  CCC(Cc1c(I)cc(I)c(N)c1I)C(=O)O (stereo not given) [IOPANOIC ACID]    Rattus norvegicus  class 2
4                 Nc1c(I)cc(I)c(CC(=O)O)c1I    Rattus norvegicus  class 1
5  CCCCCCCCCCCCCCCC(=O)OCC(COC(=O)CCCCCCCCCCCCCCC)OC(=O)C(CC)Cc1c(I)cc(I)c(N)c1I (stereo not given)    Rattus norvegicus  class 3
6                Nc1c(I)cc(I)c(CCC(=O)O)c1I    Rattus norvegicus  class 1
7  CCCCCCCCCCCCCCCC(=O)OCC(COC(=O)CCCCCCCCCCCCCCC)OC(=O)CCCCCCCCCCCc1c(I)cc(I)c(N)c1I    Rattus norvegicus  class 3
8  CCCCCCCCCCCCCCCC(=O)OCC(COC(=O)CCCCCCCCCCCCCCC)OC(=O)CCCCCCCCCCCCCCCCc1c(I)cc(I)c(N)c1I    Rattus norvegicus  class 3
9  CCCCCCCCCCCCCCCC(=O)OCC(COC(=O)CCCCCCCCCCCCCCC)OC(=O)CCc1c(I)cc(I)c(N)c1I    Rattus norvegicus  class 2

----------
System: Rattus norvegicus
Assay: Distribution of radioactivity of radiolabeled compound in kidney of female rats 30 minutes after intravenous administration
Format: ADME, organism-based
Settings: in vivo, 0.5 h
As shown below, each of these molecules has a reported Dose value.
MEASUREMENT_LABEL: Dose (%)

> print(dat)
                                    molecule  experimental.target  measurement.label  unit.abbreviation  endpoint.value
 1                Nc1c(I)cc(I)c(CCC(=O)O)c1I    Rattus norvegicus               Dose                  %            1.54
 2                 Nc1c(I)cc(I)c(CC(=O)O)c1I    Rattus norvegicus               Dose                  %            5.82
 3  CCCCCCCCCCCCCCCC(=O)OCC(COC(=O)CCCCCCCCCCCCCCC)OC(=O)CCc1c(I)cc(I)c(N)c1I    Rattus norvegicus               Dose                  %            1.65
 4  CCCCCCCCCCCCCCCC(=O)OCC(COC(=O)CCCCCCCCCCCCCCC)OC(=O)CCCCCCCCCCCCCCCCc1c(I)cc(I)c(N)c1I    Rattus norvegicus               Dose                  %            1.29
 5  Nc1c(I)cc(I)c(CCCCCCCCCCCCCCCCC(=O)O)c1I    Rattus norvegicus               Dose                  %            1.01
 6  CCCCCCCCCCCCCCCC(=O)OCC(COC(=O)CCCCCCCCCCCCCCC)OC(=O)C(CC)Cc1c(I)cc(I)c(N)c1I (stereo not given)    Rattus norvegicus               Dose                  %            0.65
 7       Nc1c(I)cc(I)c(CCCCCCCCCCCC(=O)O)c1I    Rattus norvegicus               Dose                  %            1.46
 8  CCCCCCCCCCCCCCCC(=O)OCC(COC(=O)CCCCCCCCCCCCCCC)OC(=O)Cc1c(I)cc(I)c(N)c1I    Rattus norvegicus               Dose                  %            0.87
 9  CCCCCCCCCCCCCCCC(=O)OCC(COC(=O)CCCCCCCCCCCCCCC)OC(=O)CCCCCCCCCCCc1c(I)cc(I)c(N)c1I    Rattus norvegicus               Dose                  %            1.21
10  CCC(Cc1c(I)cc(I)c(N)c1I)C(=O)O (stereo not given)    Rattus norvegicus               Dose                  %            0.52

----------
As shown below, each of these molecules has a reported Dose value.
Test system: Rattus norvegicus
Test: Distribution of radioactivity of radiolabeled compound in lung of female rats 30 minutes after intravenous administration
Format: ADME, organism-based
Details: in vivo, 0.5 h
MEASUREMENT_LABEL: Dose (%)

> print(dat)
                                   molecule  measurement.label  unit.abbreviation  endpoint.value
1  CCC(Cc1c(I)cc(I)c(N)c1I)C(=O)O (centres undefined)               Dose                  %            0.61
2  CCCCCCCCCCCCCCCC(=O)OCC(COC(=O)CCCCCCCCCCCCCCC)OC(=O)C(CC)Cc1c(I)cc(I)c(N)c1I (centres undefined)               Dose                  %            0.97
3  CCCCCCCCCCCCCCCC(=O)OCC(COC(=O)CCCCCCCCCCCCCCC)OC(=O)Cc1c(I)cc(I)c(N)c1I               Dose                  %            1.34
4  CCCCCCCCCCCCCCCC(=O)OCC(COC(=O)CCCCCCCCCCCCCCC)OC(=O)CCCCCCCCCCCc1c(I)cc(I)c(N)c1I               Dose                  %            1.84

----------
System: Rattus norvegicus
Test: Distribution of radioactivity of radiolabeled compound in heart of female rats 30 minutes after intravenous administration
Format: ADME, organism-based
Settings: in vivo, 0.5 h
Please assign 0 (no) whenever Dose is at or above 0.7%, and 1 (yes) whenever it is below.

> print(dat)
                                   compound    class
1  CCC(Cc1c(I)cc(I)c(N)c1I)C(=O)O (centres undefined)  1 (yes)
2                Nc1c(I)cc(I)c(CCC(=O)O)c1I   0 (no)
3  CCCCCCCCCCCCCCCC(=O)OCC(COC(=O)CCCCCCCCCCCCCCC)OC(=O)CCc1c(I)cc(I)c(N)c1I   0 (no)
4  Nc1c(I)cc(I)c(CCCCCCCCCCCCCCCCC(=O)O)c1I   0 (no)
5       Nc1c(I)cc(I)c(CCCCCCCCCCCC(=O)O)c1I   0 (no)
6  CCCCCCCCCCCCCCCC(=O)OCC(COC(=O)CCCCCCCCCCCCCCC)OC(=O)C(CC)Cc1c(I)cc(I)c(N)c1I (centres undefined)   0 (no)

----------
Test system: Rattus norvegicus
Assay: Distribution of radioactivity of radiolabeled compound in liver of female rats 5 minutes after intravenous administration
Format: ADME, organism-based
Conditions: in vivo
Short version: Dose at least 3% is YES, less is NO.

> print(dat)
                                   compound  class
1                 Nc1c(I)cc(I)c(CC(=O)O)c1I     NO
2                Nc1c(I)cc(I)c(CCC(=O)O)c1I     NO
3  CCCCCCCCCCCCCCCC(=O)OCC(COC(=O)CCCCCCCCCCCCCCC)OC(=O)CCc1c(I)cc(I)c(N)c1I     NO
4  CCC(Cc1c(I)cc(I)c(N)c1I)C(=O)O (centres undefined) [IOPANOIC ACID]     NO
5  CCCCCCCCCCCCCCCC(=O)OCC(COC(=O)CCCCCCCCCCCCCCC)OC(=O)CCCCCCCCCCCc1c(I)cc(I)c(N)c1I    YES
6  CCCCCCCCCCCCCCCC(=O)OCC(COC(=O)CCCCCCCCCCCCCCC)OC(=O)CCCCCCCCCCCCCCCCc1c(I)cc(I)c(N)c1I    YES
7  CCCCCCCCCCCCCCCC(=O)OCC(COC(=O)CCCCCCCCCCCCCCC)OC(=O)C(CC)Cc1c(I)cc(I)c(N)c1I (centres undefined)     NO
8  Nc1c(I)cc(I)c(CCCCCCCCCCCCCCCCC(=O)O)c1I    YES
